Hello, the source for this data is patent US9187525B2, in case you need it.

- TEST SYSTEM: T1, natriuretic peptide receptor-B (human)
- T1 chain: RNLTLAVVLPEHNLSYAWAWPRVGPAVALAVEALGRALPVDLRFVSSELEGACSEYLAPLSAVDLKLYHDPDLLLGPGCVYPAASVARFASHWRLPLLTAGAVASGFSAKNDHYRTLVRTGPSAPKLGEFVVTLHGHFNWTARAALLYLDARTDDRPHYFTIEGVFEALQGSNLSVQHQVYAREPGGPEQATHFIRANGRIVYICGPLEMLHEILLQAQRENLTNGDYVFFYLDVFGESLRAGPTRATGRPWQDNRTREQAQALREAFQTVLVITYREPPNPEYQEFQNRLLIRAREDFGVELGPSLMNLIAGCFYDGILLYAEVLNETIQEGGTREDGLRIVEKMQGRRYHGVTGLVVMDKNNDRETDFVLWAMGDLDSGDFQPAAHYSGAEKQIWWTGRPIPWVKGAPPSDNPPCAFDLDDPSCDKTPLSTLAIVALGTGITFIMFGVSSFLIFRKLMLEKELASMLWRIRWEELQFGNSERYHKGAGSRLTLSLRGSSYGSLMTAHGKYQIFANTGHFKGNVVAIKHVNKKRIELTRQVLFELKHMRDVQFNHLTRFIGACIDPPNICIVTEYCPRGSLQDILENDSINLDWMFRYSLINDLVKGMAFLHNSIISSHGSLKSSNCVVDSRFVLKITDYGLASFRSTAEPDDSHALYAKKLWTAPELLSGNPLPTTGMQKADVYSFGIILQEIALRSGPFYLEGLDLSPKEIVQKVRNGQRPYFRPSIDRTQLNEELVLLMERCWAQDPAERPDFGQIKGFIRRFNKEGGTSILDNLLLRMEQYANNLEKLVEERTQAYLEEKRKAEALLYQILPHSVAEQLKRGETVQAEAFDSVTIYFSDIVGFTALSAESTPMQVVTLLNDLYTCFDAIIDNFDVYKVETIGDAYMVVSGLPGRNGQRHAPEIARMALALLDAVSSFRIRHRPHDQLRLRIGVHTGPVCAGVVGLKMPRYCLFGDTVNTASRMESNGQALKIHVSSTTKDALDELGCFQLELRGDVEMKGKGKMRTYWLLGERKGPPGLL
- TEST DETAILS: cell-based or functional assay
Numbered stars: 1 amine (or outer) side, 2 acyl side, 3 side chain; on linkers, the order of the positions; unused ones are H or OH. Square brackets hold non-standard residues; d marks the D form. Ends that are not written are not given here. * marks the point of attachment. Pro(trans-4-NH2) = O=C([C@@H]1C[C@@H](N[*:3])CN1[*:1])[*:2]; Sni = (S)-nipecotic acid, O=C([C@H]1CCCN([*:1])C1)[*:2]; Tyr(3-I) = N[C@@H](Cc1ccc(O)c(I)c1)C(=O)O; Hyp = O=C(O)[C@@H]1C[C@@H](O)CN1; Aoc(2) = CCCCCC[C@H](N)C(=O)O; NMeL = CN[C@@H](CC(C)C)C(=O)O; Tle = CC(C)(C)[C@H](N)C(=O)O; Octanoyl = CCCCCCCC(=O)*; dAbu = CC[C@@H](N)C(=O)O; 3791 = not defined here; Che = not defined here; Hexanoyl = CCCCCC(=O)*; Occ = octanoic acid; GABA = NCCCC(=O)O
# EC50 group, cGMP in GTM-3 cells per record follows

Recorded results for 2 binders are shown here.
• Octanoyl-[Sni]F[dR]L[Pro(trans-4-NH2)][NMeL]DRI-NH2 [JAL-1317] = ≤ 1000 nM
• Octanoyl-[dAbu]FGLKLDRI-NH2 [JAL-0762] = ≤ 15000 nM

The recorded EC50 group, cGMP in GTM-3 cells for Octanoyl-AAFGLKLDR[3791] (not fully specified (some residues); printed as Occ-ala-ala-Phe-Gly-Leu-Lys-Leu-Asp-Arg-3791; reading uncertain) [JAL-0792] is ≤ 15000 nM

The recorded EC50 group, cGMP in GTM-3 cells for [Occ][Sni]FLL[Hyp][NMeL]SR[Che] (not fully specified (residue 4); printed as Occ-Sni-Phe-leu-Leu-Hyp-Nml-Ser-Arg-Che; reading uncertain) [JAL-1752] is ≤ 1000 nM

The recorded EC50 group, cGMP in GTM-3 cells for [Occ][Sni]F[dL]L[Pro(trans-4-NH2)](Gly)[NMeL]DRI-NH2 [JAL-1322] is ≤ 1000 nM

The recorded EC50 group, cGMP in GTM-3 cells for Hexanoyl-A[dA]FGLKLDRI-NH2 [JAL-0632] is ≤ 15000 nM

The recorded EC50 group, cGMP in GTM-3 cells for Octanoyl-[dA]F[dL]L[Hyp][NMeL]DR[Tle]-NH2 [JAL-1352] is ≤ 1000 nM

The recorded EC50 group, cGMP in GTM-3 cells for XXFXLXXDRI (Occ-Sni-Phe-orn(Me2)-Leu-Hyp-Nml-Asp-Arg-Ile-NH2) [JAL-1289] is ≤ 1000 nM

The recorded EC50 group, cGMP in GTM-3 cells for Ac-[Tyr(3-I)][GABA][Aoc(2)]AFRL[Hyp][NMeL]DRI-NH2 (also: lower-case ala, arg: meaning not given here) [JAL-1432] is ≤ 15000 nM

The recorded EC50 group, cGMP in GTM-3 cells for [Occ][Sni]FLL[Hyp][NMeL]TR[Che] (not fully specified (residue 4); printed as Occ-Sni-Phe-leu-Leu-Hyp-Nml-Thr-Arg-Che; reading uncertain) [JAL-1753] is ≤ 1000 nM
